# target-or-system: DDB1:CRBN complex, full-length human CRBN (residues 1–442) with N-terminal biotinylated Avi-tag, co-expressed … (human, UniProt Q96SW2 1-442; Q16531 1-1140, biotin on the Avi-tag (BirA, 100% efficiency))
# Sequence (Q96SW2 whole entry, chain 1 of 2, the tested form may be a part): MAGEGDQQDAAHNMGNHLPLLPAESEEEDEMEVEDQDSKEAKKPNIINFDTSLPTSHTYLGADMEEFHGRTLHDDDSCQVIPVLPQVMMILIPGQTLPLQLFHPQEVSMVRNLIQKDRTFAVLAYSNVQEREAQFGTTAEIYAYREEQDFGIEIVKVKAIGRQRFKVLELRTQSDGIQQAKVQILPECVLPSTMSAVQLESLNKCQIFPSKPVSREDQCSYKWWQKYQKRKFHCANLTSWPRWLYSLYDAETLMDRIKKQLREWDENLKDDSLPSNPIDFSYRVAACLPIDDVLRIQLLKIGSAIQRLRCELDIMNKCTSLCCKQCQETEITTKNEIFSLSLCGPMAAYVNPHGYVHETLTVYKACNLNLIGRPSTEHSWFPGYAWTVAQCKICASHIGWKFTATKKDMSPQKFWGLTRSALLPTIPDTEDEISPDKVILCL
# Sequence (Q16531 whole entry, chain 2 of 2, the tested form may be a part): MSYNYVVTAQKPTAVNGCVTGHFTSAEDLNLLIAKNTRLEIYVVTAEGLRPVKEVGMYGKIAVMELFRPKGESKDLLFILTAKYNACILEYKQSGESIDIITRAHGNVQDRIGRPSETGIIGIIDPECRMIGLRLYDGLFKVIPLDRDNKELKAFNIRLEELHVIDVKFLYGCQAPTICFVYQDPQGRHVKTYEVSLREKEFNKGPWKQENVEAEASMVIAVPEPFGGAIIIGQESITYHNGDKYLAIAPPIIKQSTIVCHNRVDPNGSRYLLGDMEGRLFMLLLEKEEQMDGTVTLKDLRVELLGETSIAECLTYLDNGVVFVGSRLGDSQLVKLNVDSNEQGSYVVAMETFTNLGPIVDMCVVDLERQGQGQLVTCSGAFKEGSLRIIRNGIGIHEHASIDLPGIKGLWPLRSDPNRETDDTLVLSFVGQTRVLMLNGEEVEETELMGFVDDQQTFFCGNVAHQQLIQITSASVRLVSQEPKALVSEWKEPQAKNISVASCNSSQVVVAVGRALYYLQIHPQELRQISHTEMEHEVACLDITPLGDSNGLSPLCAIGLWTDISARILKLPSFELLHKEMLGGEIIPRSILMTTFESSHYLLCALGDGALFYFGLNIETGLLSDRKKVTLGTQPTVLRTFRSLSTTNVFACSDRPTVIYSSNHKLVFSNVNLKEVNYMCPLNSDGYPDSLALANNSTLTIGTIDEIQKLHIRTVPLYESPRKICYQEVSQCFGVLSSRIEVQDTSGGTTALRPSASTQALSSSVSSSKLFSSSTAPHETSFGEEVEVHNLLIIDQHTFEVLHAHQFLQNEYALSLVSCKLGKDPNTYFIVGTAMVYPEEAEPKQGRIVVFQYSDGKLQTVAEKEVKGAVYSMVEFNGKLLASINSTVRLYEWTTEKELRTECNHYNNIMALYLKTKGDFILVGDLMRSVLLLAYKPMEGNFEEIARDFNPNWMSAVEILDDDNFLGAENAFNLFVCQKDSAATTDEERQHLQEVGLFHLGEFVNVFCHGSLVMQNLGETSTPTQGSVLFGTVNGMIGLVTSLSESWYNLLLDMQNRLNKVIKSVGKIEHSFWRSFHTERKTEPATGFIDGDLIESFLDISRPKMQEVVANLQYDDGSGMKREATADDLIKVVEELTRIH
# experiment: SPR; pomalidomide
quantity-kind: Kd (nM)
Numbers only, in nM.

{"binder": "Human SALL4 ZF1-2(379–432) (domain or fragment) LYKHKCKYCSKVFGTDSSLQIHLRSHTGERPFVCSVCGHRFTTKGNLKVHFHRH", "Kd (nM)": 2100}

Please list Kd recorded for the binder Human SALL4 ZF1-2(370–454) (domain or fragment) DVKPKDEAALYKHKCKYCSKVFGTDSSLQIHLRSHTGERPFVCSVCGHRFTTKGNLKVHFHRHPQVKANPQLFAEFQDKVAAGNG 60
